Where do the numbers come from? From ChEMBL document CHEMBL1201862.

# Test system: CCRF-CEM
# procedure.text: NCI tumour cell line growth inhibition, 48 h
Active and inactive are the calls of the source. Cut-off read from the data, not from the text of the source: active = GI50 up to about 1.1 µM and inactive = higher.
Collected GI50 values appear next to each entry.
measured.attribute: GI50

[[record]]
molecule = "COC(=O)CN(C)P(=O)(N1CC1)N1CC1"
measured_attribute = "GI50"
reported_result = "36.9 µM (inactive)"

[[record]]
molecule = "COc1ccc(CC2NCCc3cc(OC)c(OC)cc32)cc1 (stereo unspecified)"
measured_attribute = "GI50"
reported_result = "> 100 µM (inactive)"

[[record]]
molecule = "NCCCN(CCCCN(CCCN)Cc1ccc2ccccc2c1)Cc1ccc2ccccc2c1"
measured_attribute = "GI50"
reported_result = "27 µM (inactive)"

[[record]]
molecule = "O=C(CSSCC(=O)OCCS(=O)(=O)Nc1ccc(Br)cc1)OCCS(=O)(=O)Nc1ccc(Br)cc1"
measured_attribute = "GI50"
reported_result = "7.66 µM (inactive)"

[[record]]
molecule = "CC#CC(OCC)(OCC)OCC"
measured_attribute = "GI50"
reported_result = "> 100 µM (inactive)"

[[record]]
molecule = "CC1=CC(O)(c2ccccc2)C(N2CCOCC2)N1O (stereo unspecified)"
measured_attribute = "GI50"
reported_result = "91.4 µM (inactive)"

[[record]]
molecule = "CC(C)(C)OC(=O)NC(Cc1ccccc1)C(=O)OCN1C(=O)C2C3C=CC(C2C1=O)C1C2C(=O)N(COC(=O)C(Cc4ccccc4)NC(=O)OC(C)(C)C)C(=O)C2C31 (stereo unspecified)"
measured_attribute = "GI50"
reported_result = "2.67 µM (inactive)"

[[record]]
molecule = "CC12CCC3c4ccc(O)cc4CCC3C1C/C(=N\\O)C2O (stereo unspecified)"
measured_attribute = "GI50"
reported_result = "42.7 µM (inactive)"

[[record]]
molecule = "O=C(COC(=O)c1ccccc1)c1ccc(Br)cc1"
measured_attribute = "GI50"
reported_result = "4.04 µM (inactive)"

[[record]]
molecule = "CC(C)(C)OC(=O)NC(CS(=O)(=O)O)C(=O)O (stereo unspecified)"
measured_attribute = "GI50"
reported_result = "> 100 µM (inactive)"

[[record]]
molecule = "CCCCCCCC/C=C\\CCCCCCC(F)C(=O)O (stereo unspecified)"
measured_attribute = "GI50"
reported_result = "> 12.5 µM (inactive)"


* * *

This section presents molecules with their documented GI50 values.
# Tested on: SF-539
# procedure.text: NCI tumour cell line growth inhibition, 48 h
Activity calls are given as the source filed them. Rule as the data show it: active = GI50 up to about 1.1 µM and inactive = higher.
measured.attribute: GI50

[[record]]
molecule = "O=C1/C(=C/c2ccccc2)CN(C(=O)OCC(Cl)(Cl)Cl)C/C1=C\\c1ccccc1"
reported_result = "4.29 µM (inactive)"

[[record]]
molecule = "CC(C)(C)/C(=N\\Nc1nc2ccccc2[nH]1)c1ccccn1"
reported_result = "> 100 µM (inactive)"

[[record]]
molecule = "COC(=O)/C=C(/C(=O)OC)c1c(C)cc2c(C)cc(C)cc(C)c1-2"
reported_result = "9.12 µM (inactive)"

[[record]]
molecule = "COc1ccc2c(c1)[n+]([O-])c(-c1ccc(OC)c(OC)c1)c(N)[n+]2[O-]"
reported_result = "29.4 µM (inactive)"

[[record]]
molecule = "COc1cc(C(=O)N(C(=S)OC23CC4CC(CC(C4)C2)C3)c2ccccc2)cc(OC)c1OC"
reported_result = "31.3 µM (inactive)"

[[record]]
molecule = "COc1ccc2cc(CNCCCN3CCN(CCCNCc4ccc5cc(OC)ccc5c4)CC3)ccc2c1"
reported_result = "1.81 µM (inactive)"

[[record]]
molecule = "COc1cc(OC)c(C2c3cc4c(cc3OC(N3CCCC3)C2C)OCO4)c(OC)c1 (centres undefined)"
reported_result = "12.1 µM (inactive)"

[[record]]
molecule = "O=C(Nc1nc(C23CC4CC(CC(C4)C2)C3)cs1)c1c(O)c2ccccc2[nH]c1=O"
reported_result = "> 100 µM (inactive)"

[[record]]
molecule = "CC(C)(C)OC(=O)N[C@H]1CC2(C=C(Cl)C(=O)C(Cl)=C2)OC1=O"
reported_result = "21.1 µM (inactive)"


* * *

# Test system: MDA-N
# procedure.text: NCI tumour cell line growth inhibition, 48 h
Activity calls are given as the source filed them. Rule as the data show it: active = GI50 up to about 1.1 µM and inactive = higher. Residues, ends and D or L forms follow the SMILES beside them. Groups on a side chain read outwards from the residue. *: point of attachment. Cbz = O=C(OCc1ccccc1)*; Boc = CC(C)(C)OC(=O)*
measured.attribute: GI50

[[record]]
molecule = "Cc1c2c(OCCN3CCCCC3)nn(C)c(=O)c2c(C)n1-c1ccccc1"
measured_attribute = "GI50"
reported_result = "35.1 µM (inactive)"

[[record]]
molecule = "CC(C)(C)OC(=O)NC(CCCCNC(=O)CNC(=O)OCc1ccccc1)C(=O)NC(CCCCNC(=O)CNC(=O)OCc1ccccc1)C(=O)NC(CCCCNC(=O)CNC(=O)OCc1ccccc1)C(=O)NC(CCCCNC(=O)CNC(=O)OCc1ccccc1)C(=O)O (stereo not given) (Boc-K([Gly-Cbz])K([Gly-Cbz])K([Gly-Cbz])K([Gly-Cbz])-OH; configuration not given here)"
measured_attribute = "GI50"
reported_result = "> 100 µM (inactive)"

[[record]]
molecule = "CSc1ccc2c(c1)N(CCCN(C)C)c1ccccc1S2"
measured_attribute = "GI50"
reported_result = "10.7 µM (inactive)"

[[record]]
molecule = "Cc1cccc(Nc2cnc(N)nc2N)c1"
measured_attribute = "GI50"
reported_result = "> 100 µM (inactive)"

[[record]]
molecule = "Nc1nc(Cl)cc(NCC2(CO)CCC(Cc3ccccc3)C2)n1 (stereo not given)"
measured_attribute = "GI50"
reported_result = "23.1 µM (inactive)"

[[record]]
molecule = "N=C(N)NCCCC(NCc1c2ccccc2nc2ccccc12)C(=O)O (stereo not given)"
measured_attribute = "GI50"
reported_result = "37.2 µM (inactive)"

[[record]]
molecule = "O=C1N/N=C\\Nc2ccc(cc2)S(=O)(=O)c2ccc(cc2)/N=C\\NNC1=O"
measured_attribute = "GI50"
reported_result = "> 100 µM (inactive)"

[[record]]
molecule = "Cc1ccc(-c2nc3cc(F)c(N4CCN(C)CC4)cc3[nH]2)cc1"
measured_attribute = "GI50"
reported_result = "32.4 µM (inactive)"

[[record]]
molecule = "CCc1n[nH]c(=O)n1/N=C/c1ccccc1Cl"
measured_attribute = "GI50"
reported_result = "> 100 µM (inactive)"

[[record]]
molecule = "CC[C@@]1(C)CCC2c3ccc(O)cc3CC[C@H]2C1C (stereo not given in full)"
measured_attribute = "GI50"
reported_result = "13.1 µM (inactive)"

[[record]]
molecule = "CCc1nnc2sc(-c3ccc(-c4ccc(Cl)cc4Cl)o3)nn12"
measured_attribute = "GI50"
reported_result = "66.5 µM (inactive)"

[[record]]
molecule = "COc1ccc2c(O)c3[n+](cc2c1OC)CCc1cc2c(cc1-3)OCO2"
measured_attribute = "GI50"
reported_result = "33.6 µM (inactive)"

[[record]]
molecule = "CC1(C)CN(CC(=O)O)CC(Cc2ccc(OCC(=O)O)cc2)N(CC(=O)O)CC(C)(C)SS1 (stereo not given)"
measured_attribute = "GI50"
reported_result = "> 100 µM (inactive)"

[[record]]
molecule = "O=C(N/N=C\\c1cccc2c([N+](=O)[O-])cccc12)Nc1ccccc1"
measured_attribute = "GI50"
reported_result = "13.1 µM (inactive)"

[[record]]
molecule = "Cc1n[nH]c(=O)n1/N=C/c1cccnc1"
measured_attribute = "GI50"
reported_result = "> 100 µM (inactive)"

[[record]]
molecule = "O=C1NC(=O)C(C(CC(=O)c2ccc([N+](=O)[O-])cc2)c2ccccc2)C(=O)N1 (stereo not given)"
measured_attribute = "GI50"
reported_result = "27.2 µM (inactive)"

[[record]]
molecule = "CN(C)c1ccc(/C=C/C(=O)CC(=O)/C=C/c2ccc(N(C)C)cc2)cc1"
measured_attribute = "GI50"
reported_result = "83.2 µM (inactive)"

[[record]]
molecule = "COc1ccccc1C(=O)N(Cc1ccccc1)c1ccc(Cl)c(C(=O)OC(C)C)c1"
measured_attribute = "GI50"
reported_result = "38.2 µM (inactive)"

[[record]]
molecule = "COc1ccc(/C=C2\\CCC/C(=C\\c3ccc(O)c(CN4CCCCC4)c3)C2=O)cc1"
measured_attribute = "GI50"
reported_result = "3.55 µM (inactive)"

[[record]]
molecule = "O=C(CC(C(=O)c1ccoc1)c1ccco1)c1ccco1 (stereo not given)"
measured_attribute = "GI50"
reported_result = "29.4 µM (inactive)"

